target: GlyT1 (Homo sapiens, UniProt P48067)
Construct: expressed in transfected cells
Sequence (P48067 1-706): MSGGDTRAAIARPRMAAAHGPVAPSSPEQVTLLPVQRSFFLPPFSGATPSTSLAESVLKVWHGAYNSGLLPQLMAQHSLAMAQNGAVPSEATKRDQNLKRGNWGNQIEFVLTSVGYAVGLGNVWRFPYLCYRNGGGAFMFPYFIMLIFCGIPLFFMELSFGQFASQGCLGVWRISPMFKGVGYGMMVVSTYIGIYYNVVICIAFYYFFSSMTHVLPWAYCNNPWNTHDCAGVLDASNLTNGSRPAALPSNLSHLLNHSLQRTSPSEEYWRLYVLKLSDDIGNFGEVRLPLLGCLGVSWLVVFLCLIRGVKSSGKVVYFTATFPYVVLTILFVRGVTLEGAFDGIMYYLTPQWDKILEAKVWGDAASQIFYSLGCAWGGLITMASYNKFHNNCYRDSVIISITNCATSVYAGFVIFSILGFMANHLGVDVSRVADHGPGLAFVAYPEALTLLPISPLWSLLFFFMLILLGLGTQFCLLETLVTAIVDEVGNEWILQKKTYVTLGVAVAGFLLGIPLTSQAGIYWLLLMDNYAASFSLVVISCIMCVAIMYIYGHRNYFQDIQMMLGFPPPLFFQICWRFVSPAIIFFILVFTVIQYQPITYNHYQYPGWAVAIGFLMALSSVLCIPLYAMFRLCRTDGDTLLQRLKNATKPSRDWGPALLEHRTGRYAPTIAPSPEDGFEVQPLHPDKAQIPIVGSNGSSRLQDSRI
measurement.description: Glycine Transporter 1 (GlyT1) uptake assay, scintillation proximity assay of [14C]-glycine uptake
Assay type: cell-based
study.conditions: SPA, four parameter logistic fit, read-out: GlyT1 (pIC50) (converted)
readout.kind: IC50

The cases that follow already have their IC50 on record.
>>> assay_result("CS(=O)(=O)c1ccc(N2CCCC2)c(C(=O)N2CCc3nn(-c4ccccc4)cc3C2)c1")
"1000 to 10000 nM"
>>> assay_result("N#Cc1ccc(OCC(F)(F)F)c(C(=O)N2CCc3nn(-c4ccc(F)cn4)cc3C2)c1Cl")
"1000 to 10000 nM"
>>> assay_result("CC(C)(F)Cn1cc2c(n1)CN(C(=O)c1cc(S(C)(=O)=O)ccc1-c1cccc(F)c1)C2")
"100 to 1000 nM"

Prompt: Report IC50 from GlyT1 (Homo sapiens, UniProt P48067) testing of COc1c(C#N)ccc(C2(F)CCOCC2)c1C(=O)N1CCc2nn(-c3ccc(F)cn3)cc2C1
Response: 100 to 1000 nM

Prompt: Please indicate recorded IC50 of Cc1nc(-n2cc3c(n2)CN(C(=O)c2c(O[C@@H](C)C(F)(F)F)ccc(C#N)c2Cl)C3)cn1C measured with GlyT1 (Homo sapiens, UniProt P48067).
Response: 100 to 1000 nM

Prompt: Report IC50 under test system GlyT1 (Homo sapiens, UniProt P48067) for CC(C)Cn1cc2c(n1)CN(C(=O)c1cc(S(C)(=O)=O)ccc1N1CCC(F)(F)CC1)C2 .
Response: < 100 nM

Prompt: Fill in IC50 for COc1ncc(-n2cc3c(n2)CN(C(=O)c2c(O[C@@H](C)C(F)(F)F)ccc(C#N)c2OC)C3)cc1F tested with GlyT1 (Homo sapiens, UniProt P48067).
Response: < 100 nM

Prompt: Give IC50 for this entry on GlyT1 (Homo sapiens, UniProt P48067): CC(Oc1ccc(C#N)c(Cl)c1C(=O)N1CCc2c(c(C(F)(F)F)nn2C)C1)C(F)(F)F (stereo not shown)
Response: 1000 to 10000 nM

The values you see were collected from patent US9708334B2.
